- Species: Rattus norvegicus
- Run description: DrugMatrix - Regimen: Daily Repeat
- Format: toxicity, organism-based, Sprague-Dawley
- Design: regimen Daily Repeat, gender Male, age 6-8 weeks
- Measurement conditions: in vivo, po, 10 mg/kg, 72 h, tissue Plasma, route oral GAVAGE, dose level Low, time 3 day, vehicle .5 % CMC
Endpoint: POTASSIUM (MEQ/L)
Please reply with the bare figure in MEQ/L and do not write the unit itself.

Past entries and their recorded results:
- Compound: "Fc1ccc(C(c2ccc(F)cc2)N2CCN(C/C=C/c3ccccc3)CC2)cc1"
  Experimental value: 6.75
- Compound: "O=C1C(CC[S+]([O-])c2ccccc2)C(=O)N(c2ccccc2)N1c1ccccc1 (centres undefined)"
  Experimental value: 6.22
- Compound: "O=C1CN=C(c2ccccc2Cl)c2cc([N+](=O)[O-])ccc2N1"
  Experimental value: 6.13

## Input Query (compound): CNCCC(Oc1ccc(C(F)(F)F)cc1)c1ccccc1 (centres undefined) ; field requested: POTASSIUM
## Output 5.93

* * *

- Species on record: Rattus norvegicus
- Run description: DrugMatrix - Regimen: Daily Repeat
- Type: toxicity, organism-based, Sprague-Dawley
- Design: regimen Daily Repeat, gender Male, age 6-8 weeks
- Measurement conditions: in vivo, po, 0 mg/kg, 72 h, tissue Plasma, route oral GAVAGE, dose level Control, time 3 day, […]
Measured TOTAL PROTEIN values are reported for all entries that follow.
Just so you know, I need the unit written after the number.

Here is how some molecules turned out for TOTAL PROTEIN.
- Molecule: "Clc1ccc(COC(Cn2ccnc2)c2ccc(Cl)cc2Cl)cc1 (centres undefined)"
  TOTAL PROTEIN: "5.8 G/DL"
- Molecule: "CC(C)(C)NC(=O)[C@H]1CC[C@H]2[C@@H]3CC[C@H]4NC(=O)C=C[C@]4(C)[C@H]3CC[C@]12C [FINASTERIDE]"
  TOTAL PROTEIN: "5.47 G/DL"

## Input Which TOTAL PROTEIN value is on record for COc1cc(N)c(Cl)cc1C(=O)NC1CCN(CCCOc2ccc(F)cc2)CC1OC (centres undefined) [CISAPRIDE] ?
## Output 5.43 G/DL

## Input Query (molecule): CO[C@H]1/C=C/O[C@@]2(C)Oc3c(C)c(O)c4c(O)c(c(/C=N/N5CCN(C6CCCC6)CC5)c(O)c4c3C2=O)NC(=O)/C(C)=C\C=C\[C@H](C)[C@H](O)[C@@H](C)[C@@H](O)[C@@H](C)[C@H](OC(C)=O)[C@@H]1C ; field requested: TOTAL PROTEIN
## Output 5.8 G/DL

* * *

Reported NEUTROPHIL by item:
- Species on record: Rattus norvegicus
- Run description: DrugMatrix - Regimen: Daily Repeat
- Type: toxicity, organism-based, Sprague-Dawley
- Parameters: regimen Daily Repeat, gender Male, age 6-8 weeks
- Measurement conditions: in vivo, po, 0 mg/kg, 120 h, tissue Blood, route oral GAVAGE, dose level Control, time 5 day, […]
Give just the numeric value; % need not be written.

## Input Looking for the measured NEUTROPHIL of CO[C@H]1/C=C/O[C@@]2(C)Oc3c(C)c(O)c4c(O)c(c(/C=N/N5CCN(C6CCCC6)CC5)c(O)c4c3C2=O)NC(=O)/C(C)=C\C=C\[C@H](C)[C@H](O)[C@@H](C)[C@@H](O)[C@@H](C)[C@H](OC(C)=O)[C@@H]1C [RIFAPENTINE] , can you help?
## Output 8.83

## Input So what does the record say about NEUTROPHIL for COc1cc(N)c(Cl)cc1C(=O)NC1CCN(CCCOc2ccc(F)cc2)CC1OC (centres undefined) [CISAPRIDE] ?
## Output 5.17

## Input State the recorded NEUTROPHIL for this entry: Clc1ccc(COC(Cn2ccnc2)c2ccc(Cl)cc2Cl)cc1 (centres undefined) [ECONAZOLE]
## Output 7.33

## Input For CC(C)(C)NC(=O)[C@H]1CC[C@H]2[C@@H]3CC[C@H]4NC(=O)C=C[C@]4(C)[C@H]3CC[C@]12C [FINASTERIDE] , what is its reported NEUTROPHIL?
## Output 12

* * *

- Organism: Rattus norvegicus
- Run description: DrugMatrix - Regimen: Daily Repeat
- Type: toxicity, organism-based, Sprague-Dawley
- Design: regimen Daily Repeat, gender Male, age 6-8 weeks
- Measurement conditions: in vivo, po, 0 mg/kg, 120 h, tissue Plasma, route oral GAVAGE, dose level Control, time 5 day, vehicle .5 % CMC
CHLORIDE reference
Could you give me the number in MEQ/L? Just the number is fine.

- Compound: "O=C1CN=C(c2ccccc2Cl)c2cc([N+](=O)[O-])ccc2N1"
  Unit label: "MEQ/L"
  CHLORIDE: 101.5
- Compound: "CN(C/C=C/C#CC(C)(C)C)Cc1cccc2ccccc12"
  Unit label: "MEQ/L"
  CHLORIDE: 108.17
- Compound: "CC(=O)Oc1ccc(C(c2ccc(OC(C)=O)cc2)c2ccccn2)cc1"
  Unit label: "MEQ/L"
  CHLORIDE: 104
- Compound: "COc1ccc(C2C(=O)c3ccccc3C2=O)cc1"
  Unit label: "MEQ/L"
  CHLORIDE: 108

## Input Find the recorded CHLORIDE belonging to Cn1c(=O)c2c(ncn2CC(O)CO)n(C)c1=O (centres undefined) and report it.
## Output 102.33

## Input Consider the compound shown here: COC1=C(OC)C(=O)C(CCCCCCCCCCO)=C(C)C1=O What is its recorded CHLORIDE?
## Output 101.5

## Input Record request: CHLORIDE value, item CN(C)[C@@H]1C(O)=C(C(N)=O)C(=O)[C@@]2(O)C(O)=C3C(=O)c4c(O)ccc(Cl)c4[C@@](C)(O)[C@H]3C[C@@H]12
## Output 102.33

## Input Item under review: O=C1Nc2ccc(Cl)cc2C(c2ccccc2Cl)=NC1O (centres undefined) . Reported CHLORIDE?
## Output 101

## Input Recorded CHLORIDE for CNCCC(Oc1ccc(C(F)(F)F)cc1)c1ccccc1 (centres undefined) , please?
## Output 100.67

* * *

- Species on record: Rattus norvegicus
- Run description: DrugMatrix - Regimen: Daily Repeat
- Assay type: toxicity, organism-based, Sprague-Dawley
- Set-up: regimen Daily Repeat, gender Male, age 6-8 weeks
- Measurement conditions: in vivo, sc, 0 mg/kg, 120 h, tissue Plasma, route subcutaneous, dose level Control, time 5 day, […]
Endpoint: ASPARTATE AMINOTRANSFERASE
Please provide the amount together with its unit, number first.

Guide cases for ASPARTATE AMINOTRANSFERASE, answers given:
- Molecule: "CCN(CC)CCOCCC1=CCC2CC1C2(C)C (stereo not given)"
  ASPARTATE AMINOTRANSFERASE: "77.17 u/L"
- Molecule: "CCC(=O)O[C@]1(C(=O)CCl)[C@@H](C)C[C@H]2[C@@H]3CCC4=CC(=O)C=C[C@]4(C)[C@@]3(F)[C@@H](O)C[C@@]21C [CLOBETASOL PROPIONATE]"
  ASPARTATE AMINOTRANSFERASE: "111 u/L"
- Molecule: "Oc1c(Cl)cc(Cl)c(Cl)c1Cc1c(O)c(Cl)cc(Cl)c1Cl"
  ASPARTATE AMINOTRANSFERASE: "75.83 u/L"
- Molecule: "CC(C)(C)CC(C)(C)c1ccc(OCCOCC[N+](C)(C)Cc2ccccc2)cc1.[Cl-] [BENZETHONIUM CHLORIDE]"
  ASPARTATE AMINOTRANSFERASE: "75.83 u/L"

We now examine a further molecule.
## Input Given the entry O=C(Nc1ccc(Br)cc1)c1cc(Br)cc(Br)c1O , report its measured ASPARTATE AMINOTRANSFERASE.
## Output 111 u/L

* * *

- Organism: Rattus norvegicus
- Run description: DrugMatrix - Regimen: Daily Repeat
- Format: toxicity, organism-based, Sprague-Dawley
- Design: regimen Daily Repeat, gender Male, age 6-8 weeks
- Measurement conditions: in vivo, sc, 0 mg/kg, 72 h, tissue Plasma, route subcutaneous, dose level Control, time 3 day, […]
Endpoint: SODIUM (MEQ/L)
Express the result in MEQ/L but write the number alone.

Illustrative cases are given below, each with its answer.
- Compound: "O=C(Nc1ccc(Br)cc1)c1cc(Br)cc(Br)c1O"
  SODIUM [MEQ/L]: 142.38
- Compound: "Oc1c(Cl)cc(Cl)c(Cl)c1Cc1c(O)c(Cl)cc(Cl)c1Cl"
  SODIUM [MEQ/L]: 142.62
- Compound: "CC(C)(C)CC(C)(C)c1ccc(OCCOCC[N+](C)(C)Cc2ccccc2)cc1.[Cl-] [BENZETHONIUM CHLORIDE]"
  SODIUM [MEQ/L]: 142.62
- Compound: "CCC(=O)O[C@]1(C(=O)CCl)[C@@H](C)C[C@H]2[C@@H]3CCC4=CC(=O)C=C[C@]4(C)[C@@]3(F)[C@@H](O)C[C@@]21C [CLOBETASOL PROPIONATE]"
  SODIUM [MEQ/L]: 142.38

As a next step, examine the compound that follows.
## Input Reported SODIUM, compound CCN(CC)CCOCCC1=CCC2CC1C2(C)C (stereo not given) : ____
## Output 143.58
